Recorded LD50 values for a group of compounds are listed next.
experiment: LD50 in mice on oral administration (toxicity); details: mouse, in vivo

1. CN(C)CCN=C1c2ccccc2CCc2c(Cl)cccc21    ~750 mg/kg

Now for another entry.
Which measured LD50 value corresponds to `CN(C)CCN=C1c2ccccc2CCc2c(Br)cccc21` ?
~750 mg/kg
